# Critical pressure per entry
protocol_conditions: Liquid; flow method with low residence time
Numbers after ± are expanded uncertainties.
test_readout: Critical pressure

compound=C1CCCCC1 value="4074 ± 36 kPa"
compound=CCCCCC value="3033 ± 27 kPa"
compound=CCCCCCC value="2736 ± 25 kPa"
compound=CCCCCCCC value="2496 ± 24 kPa"
compound=CCO value="6141 ± 51 kPa"
compound="CCOC(=O)OCC [diethyl carbonate]" value="3346 ± 30 kPa"

---

protocol_conditions: Liquid; flow method with low residence time
Numbers after ± are expanded uncertainties.
# Critical temperature per entry
test_readout: Critical temperature

compound=C1CCCCC1 test_readout="Critical temperature" value="553.6 ± 0.4 K"
compound=CCCCCCC test_readout="Critical temperature" value="540.1 ± 0.4 K"
compound=CCO test_readout="Critical temperature" value="514 ± 0.4 K"
compound="CCOC(=O)OCC [diethyl carbonate]" test_readout="Critical temperature" value="578.1 ± 0.4 K"
compound=CCCCCC test_readout="Critical temperature" value="507.8 ± 0.4 K"
compound=CCCCCCCC test_readout="Critical temperature" value="568.9 ± 0.4 K"
